Reported IC50 by item:
TESTED_SYSTEM: Aβ1–42 (amyloid-β 1-42) (Homo sapiens)
Sequence (P05067 672-713): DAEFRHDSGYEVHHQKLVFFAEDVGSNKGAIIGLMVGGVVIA
EXPERIMENT_NOTES: fluorescent-probe fibril aggregation inhibition kit assay
Give your result in µM as a bare value.

[[record]]
molecule = "O=C(/C=C/c1ccc(O)c(O)c1)NCCc1ccc(O)cc1 [compound 6, N-trans-caffeoyltyramine]"
measured_result = 20.2

[[record]]
molecule = "COc1cc(/C=C/C(=O)NC[C@@H](O)c2ccc(O)cc2)ccc1O [compound 4, S-(−)-N-trans-feruloyloctopamine]"
measured_result = 39.8

[[record]]
molecule = "COc1cc(/C=C/C(=O)NC[C@@H](OC)c2ccc(O)cc2)ccc1O"
measured_result = 7.63

[[record]]
molecule = "COc1cc(/C=C/C(=O)NCCc2ccc(O)c(OC)c2)ccc1O [compound 1, N-trans-feruloyl-3-methoxytyramine]"
measured_result = 0.874


Then there is this molecule:
Q: Consider the molecule COc1cc(/C=C/C(=O)NCCc2ccc(O)cc2)ccc1O [compound 2, N-trans-feruloyltyramine] and give its measured IC50.
Ans: 3.83
